Listed next: entries and their corresponding ratio over irrelevant protein.
Target: T1, huTfR Apical Domain-Avi-His (human, biotin on the Avi tag (BirA) where captured on streptavidin)
T1 construct: also called huTfR apical Avi-His; hTfR Apical
T1 chain: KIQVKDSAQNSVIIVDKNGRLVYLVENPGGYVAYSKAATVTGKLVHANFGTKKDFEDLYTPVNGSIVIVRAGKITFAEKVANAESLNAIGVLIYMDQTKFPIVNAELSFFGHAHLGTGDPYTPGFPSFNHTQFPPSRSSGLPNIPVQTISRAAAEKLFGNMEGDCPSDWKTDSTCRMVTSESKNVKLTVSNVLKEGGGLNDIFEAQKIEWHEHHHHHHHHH
Assay: ELISA OD450, supernatant
Numeric answer only, unit fold assumed.

Sample records with ratio over irrelevant protein:
TfR28 (mouse hybridoma antibody) (antibody, V domains shown, mouse IgG in hybridoma supernatant) VH: DVQLQESGPGLVKPSQSLSLTCTVTGYSITSDYAWNWIRQFPGNKLEWMGYISYSGSTSYNPSLRSRISITRDTSKNQFFLQLNSVTTEDTATYYCAIRGYRYEEDYWGQGTTLTVSS VL: QIVLTQSPAIMSASPREKVTMTCSASSSISSMHWYQQKPGTSPKRWIYDTSKLASGVPARFSGSGSGTSYSLTISSMEAEDAATYYCHQRSSYPWTFGGGTKLEIK    30
TfR1 (mouse hybridoma antibody) (antibody, V domains shown, mouse IgG in hybridoma supernatant) VH: QVQLQQSGPELVKPGASVKMSCKASGYTFTNYYIHWVKQRPGQGLEWIGWIYPGDGSTKYNEKFKGKTTLTADKSSSTAYMLLSSLTSEDSAIYFCARDGSSAPKFTYWGQGTLVTVSA VL: DIVMTQSPSSLTVTAGEKVTMRCKSSQSLLNSGNQKNYLTWYQQKPGQPPKLLIYWASTRESGVPDRFTGSGSGTDFTLTISSVQAEDLAVYYCQNDYSYPLTFGAGTKLELK    22
TfR13 (mouse hybridoma antibody) (antibody, V domains shown, mouse IgG in hybridoma supernatant) VH: DVKLVESGGGLVKPGGSLKLSCAASGFTFSSYTMSWVRQTPEKRLEWVATISSGGSYTYFPDSVKGRFTISRDNAKNTLYLQMSSLKSEDTAIYYCTRAHYYAYDYWGQGTTLTVSS VL: DILLTQSPAILSVSPGERVSFSCRASQSIGTSIHWYQQRTNGSPRLLIKYASGSISGIPSRFSGSGSGTDFTLSINSVESEDIADYYCQQSNSWPTSTFGAGTKLELK    22

Here's the next entry for you.
Data point: TfR15 (mouse hybridoma antibody) (antibody, V domains shown, mouse IgG in hybridoma supernatant) VH: QVQLQQPGSELVRPGASVKLSCKASGYTFTSYWMHWVKQRPGQGLEWIGNIYPGSGSSNYDEKFKSKATLTVDTSSSTAYMQLNSLTSEDSAVYYCTRSSYYGNFDTMDNWGQGTSVTVSS VL: QIVLTQSPAIMSASPGEKVTMTCSASSSIRYMNWYQQKPVTSPKRWIYDTSTLASGVPARFSGSGSGTSYSLTISSMEAEDAATYYCHQRSSYPWTFGGGTKLEIK ; ratio over irrelevant protein = 34
